- Test system: A549
- experiment-description: NCI tumour cell line growth inhibition, 48 h
The source made the active and inactive calls. Cut-off read from the data, not from the text of the source: active = GI50 up to about 1.1 µM and inactive = higher.
attribute-measured: GI50

Would you please look over these solved cases?
> print(dat)
                                   compound  observed.measurement
1    CN1N=C2NCCNC3=NN(C)/C(=N/CC/N=C/1S2)S3   > 100 µM (inactive)
2                        CCCCCCCCCCNC(=S)OC    34.3 µM (inactive)
3  CC1CCN(CCC(=O)CC(c2ccccc2)c2c(O)c3ccccc3oc2=O)CC1 (configuration not stated)   > 100 µM (inactive)
4  CCOC(=O)C1=CC(C)(C(=O)OCC)Nc2c(nc(SC)n(C)c2=O)N1 (configuration not stated)    > 10 µM (inactive)
5  O=C1C(Cl)=C(N[C@@H](Cc2ccccc2)C(=O)OCc2ccccc2)C(=O)c2c(O)ccc(O)c21    3.47 µM (inactive)
6     Nc1[nH]c(Nc2ccc(Cl)c(Cl)c2)nc2ncnc1-2    13.9 µM (inactive)

The record that follows has no GI50 shown yet.
Recorded GI50 of Cc1ccc(/C=C/C(=O)CCN(C)C)cc1 , please.
20.7 µM (inactive)
